Target desc: T1, B3GNT2 (Homo sapiens, UniProt Q9NY97)
T1 construct: The respective ORFs of candidate genes [CD274 (NM_014143), MCL1 (NM_021960), JUNB (NM_002229), and B3GNT2 (NM_006577)] were synthesized; expressed in transfected cells; host or cells: A375 melanoma cells (lentiviral ORF overexpression)
T1 sequence (Q9NY97 1-397): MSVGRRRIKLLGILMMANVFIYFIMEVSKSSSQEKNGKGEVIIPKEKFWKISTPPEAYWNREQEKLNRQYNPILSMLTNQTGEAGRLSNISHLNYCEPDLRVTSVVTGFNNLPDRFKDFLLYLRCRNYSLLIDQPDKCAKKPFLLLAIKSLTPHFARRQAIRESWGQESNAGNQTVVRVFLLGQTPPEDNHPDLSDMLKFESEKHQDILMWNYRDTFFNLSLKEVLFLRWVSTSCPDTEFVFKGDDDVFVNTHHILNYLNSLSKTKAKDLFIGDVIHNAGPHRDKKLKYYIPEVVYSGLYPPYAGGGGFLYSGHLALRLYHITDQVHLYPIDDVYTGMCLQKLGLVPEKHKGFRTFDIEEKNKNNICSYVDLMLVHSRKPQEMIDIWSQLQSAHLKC
Protocol description: Co-IP of FLAG-tagged B3GNT2 followed by mass spectrometry
Type: cell-based
Design: unit not given here
Assay setup: Co-IP with FLAG antibody, C-terminally FLAG-tagged B3GNT2; mass spectrometry count, unit not given
Readout name: C-term flag
One number for each entry.

Quick batch: C-term flag for everything below.
1. PSMB6 (protein) TTIMAVQFDGGVVLGADSRTTTGSYIANRVTDKLTPIHDRIFCCRSGSAADTQAVADAVTYQLGFHSIELNEPPLVHTAASLFKEMCYRYREDLMAGIIIAGWDPQEGGQVYSVPMGGMMVRQSFAIGGSGSSYIYGYVDATYREGMTKEECLQFTANALALAMERDGSSGGVIRLAAIAESGVERQVLLGDQIPKFAVATLPPA
2. ERP44 (protein) EITSLDTENIDEILNNADVALVNFYADWCRFSQMLHPIFEEASDVIKEEFPNENQVVFARVDCDQHSDIAQRYRISKYPTLKLFRNGMMMKREYRGQRSVKALADYIRQQKSDPIQEIRDLAEITTLDRSKRNIIGYFEQKDSDNYRVFERVANILHDDCAFLSAFGDVSKPERYSGDNIIYKPPGHSAPDMVYLGAMTNFDVTYNWIQDKCVPLVREITFENGEELTEEGLPFLILFHMKEDTESLEIFQNEVARQLISEKGTINFLHADCDKFRHPLLHIQKTPADCPVIAIDSFRHMYVFGDFKDVLIPGKLKQFVFDLHSGKLHREFHHGPDPTDTAPGEQAQDVASSPPESSFQKLAPSEYRYTLLRDRDEL
3. PIP (protein) QDNTRKIIIKNFDIPKSVRPNDEVTAVLAVQTELKECMVVKTYLISSIPLQGAFNYKYTACLCDDNPKTFYWDFYTNRTVQIAAVVDVIRELGICPDDAAVIPIKNNRFYTIEILKVE

## Result
[3, 2, 3]
